Where do the numbers come from? From patent US20190135793A1.

test-target: KDM4C (Homo sapiens, UniProt Q9H3R0)
Construct: Full length of KDM5B and KDM4C protein were purchased from Active Motif; purchased Active Motif 31858
Sequence (Q9H3R0 whole entry): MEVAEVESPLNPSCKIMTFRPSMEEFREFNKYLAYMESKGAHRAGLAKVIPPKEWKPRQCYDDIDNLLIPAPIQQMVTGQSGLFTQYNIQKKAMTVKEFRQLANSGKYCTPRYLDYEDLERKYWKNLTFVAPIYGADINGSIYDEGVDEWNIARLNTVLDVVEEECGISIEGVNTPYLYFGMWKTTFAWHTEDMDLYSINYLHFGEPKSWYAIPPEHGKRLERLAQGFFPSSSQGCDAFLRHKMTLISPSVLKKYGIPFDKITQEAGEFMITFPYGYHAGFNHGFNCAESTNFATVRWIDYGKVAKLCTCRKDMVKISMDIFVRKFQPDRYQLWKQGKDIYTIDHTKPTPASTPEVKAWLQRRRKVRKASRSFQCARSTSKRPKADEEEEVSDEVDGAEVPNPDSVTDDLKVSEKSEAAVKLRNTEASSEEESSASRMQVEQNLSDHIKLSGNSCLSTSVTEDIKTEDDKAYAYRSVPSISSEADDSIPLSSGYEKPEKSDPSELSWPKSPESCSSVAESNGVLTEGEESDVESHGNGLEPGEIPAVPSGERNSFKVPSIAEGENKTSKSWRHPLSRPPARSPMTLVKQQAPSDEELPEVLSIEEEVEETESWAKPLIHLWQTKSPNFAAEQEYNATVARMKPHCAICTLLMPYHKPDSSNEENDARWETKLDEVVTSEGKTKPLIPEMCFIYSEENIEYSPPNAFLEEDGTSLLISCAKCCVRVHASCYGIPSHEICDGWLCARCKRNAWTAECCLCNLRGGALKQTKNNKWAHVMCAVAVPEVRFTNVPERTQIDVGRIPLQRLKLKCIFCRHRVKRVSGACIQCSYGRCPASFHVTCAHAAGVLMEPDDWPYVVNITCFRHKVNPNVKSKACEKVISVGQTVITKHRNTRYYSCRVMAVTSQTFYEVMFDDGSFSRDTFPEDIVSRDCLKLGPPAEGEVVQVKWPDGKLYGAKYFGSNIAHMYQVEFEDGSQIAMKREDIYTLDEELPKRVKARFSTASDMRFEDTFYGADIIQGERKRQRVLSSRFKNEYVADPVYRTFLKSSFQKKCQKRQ
assay-remarks: KDM4C AlphaScreen assay
Assay type: biochemical
condition-summary: AlphaScreen; full length KDM4C 0.2 nM; biotinylated H3K9Me3 peptide 3 nM; 30 minutes at room temperature
pIC50: −log10 of the molar value.
readout-kind: pIC50

// query Using the record for "CC(C)c1c(O)nc(-n2ccnc2)nc1NCc1cccnc1" , state its measured pIC50.
// result 5.53

// query Using the record for "CC(C)c1c(O)nc(-n2ccnc2)nc1-c1cn[nH]c1" , state its measured pIC50.
// result 5.95

[P] CC(=O)N1CCN(CCOc2nc(-n3ccnc3)nc(O)c2C(C)C)CC1
[Q] Cc1nc(-n2ccnc2C)nc(O)c1C(C)C
[R] Cc1nc(-c2c[nH]cn2)nc(O)c1C(C)C
// query Arrange these 3 compounds in increasing order of pIC50. Labels, ranked as asked.
// result R, Q, P
